Task for the reader: assign each of the following binders its reported koff.
- subject of test: T1, extracellular domain of human IL-4Rα (residues 26–232), C-terminal 6× His (human, UniProt P24394)
- T1 construct: human interleukin-4 receptor alpha subunit, extracellular domain, residues 26-232; Subcloned into the pSecTag2A vector; N-glycosylated (~45 kDa, ~26 kDa after PNGase F); also called wild-type IL-4Rα; soluble IL-4Rα; source: HEK293F, transiently transfected, purified (Ni-NTA); not shown: His6, C-terminal, kept
- experiment notes: BLI; OctetRED96; Ab (1 μg/mL) captured on anti-human IgG Fc capture (AHC) biosensors at low density (0.6 to 0.8 nm), soluble monomeric IL-4Rα as analyte; 25 °C, PBS pH 7.4, 0.02% Tween 20; association 300 s, dissociation 600-900 s; 1:1 binding model
- measurement setup: both partners purified
Hi! Could you send only the number? It should be in s⁻¹, unit omitted.

Consider the binder shown here: 4R34.1.11, human IgG1 (antibody, V domains shown) VH: EVQLLESGGGLVQPGGSLRLSCAASGFTFSNYAMSWVRQAPGKGLEWVSAITSSGRSIYYADSVKGRFTISRDNSKNTLYLQMNSLRAEDTAVYYCARVHRAFDYWGQGTLVTVSS VL: QSVLTQPPSASGTPGQRVTISCSGSSANSRTDGFNWYQQLPGTAPKLLIYADSHRPSGVPDRFSGSKSGTSASLAISGLRSEDEADYYCGTWDYSLRGYVLGGGTKLTVL What is its recorded koff? 0.000968

Next entry: 4R34.1.13, human IgG1 (antibody, V domains shown) VH: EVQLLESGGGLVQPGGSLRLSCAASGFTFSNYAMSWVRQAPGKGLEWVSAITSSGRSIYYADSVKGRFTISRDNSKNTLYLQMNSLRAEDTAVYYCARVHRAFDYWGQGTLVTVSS VL: QSVLTQPPSASGTPGQRVTISCSGSAQFGSRDNFNWYQQLPGTAPKLLIYADSHRPSGVPDRFSGSKSGTSASLAISGLRSEDEADYYCGTWDYSLRGYVLGGGTKLTVL 0.00107

Next entry: 4R34.1.19, human IgG1 (antibody, V domains shown) VH: EVQLLESGGGLVQPGGSLRLSCAASGFTFSRHAMAWVRQAPGKGLEWVSAITSSGRSIYYADSVKGRFTISRDNSKNTLYLQMNSLRAEDTAVYYCARVHRAFDYWGQGTLVTVSS VL: QSVLTQPPSASGTPGQRVTISCSGSPLFPDSGSFNWYQQLPGTAPKLLIYADSHRPSGVPDRFSGSKSGTSASLAISGLRSEDEADYYCGTWDYSLSGYVLGGGTKLTVL 0.000877

Next entry: 4R34.1, human IgG1 (antibody, V domains shown) VH: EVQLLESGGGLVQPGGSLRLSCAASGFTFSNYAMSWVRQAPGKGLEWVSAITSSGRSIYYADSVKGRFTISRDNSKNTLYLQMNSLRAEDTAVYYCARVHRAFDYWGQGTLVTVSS VL: QSVLTQPPSASGTPGQRVTISCSGSSSNIGSNTFNWYQQLPGTAPKLLIYADSHRPSGVPDRFSGSKSGTSASLAISGLRSEDEADYYCGTWDYSLSGYVLGGGTKLTVL 0.00172
